Target: KIAA 1361 (baculovirus expressed human KIAA 1361 kinase domain 2-322) (Homo sapiens, UniProt Q7L7X3)
Sequence (Q7L7X3 2-322): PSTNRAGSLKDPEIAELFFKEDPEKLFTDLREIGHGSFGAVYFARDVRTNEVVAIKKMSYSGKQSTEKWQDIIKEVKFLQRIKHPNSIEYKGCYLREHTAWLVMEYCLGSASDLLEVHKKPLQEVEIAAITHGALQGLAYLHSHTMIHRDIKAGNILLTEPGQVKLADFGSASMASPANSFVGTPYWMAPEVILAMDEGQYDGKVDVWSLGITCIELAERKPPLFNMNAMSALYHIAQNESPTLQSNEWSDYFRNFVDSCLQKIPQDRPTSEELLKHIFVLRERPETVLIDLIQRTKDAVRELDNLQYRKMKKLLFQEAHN
Reported IC50 is given for each of the following molecules.

Some entries whose results are on file:
> print(dat)
                                   molecule          result
1  CCc1ccc(-c2ccc(C(=O)NCC(=O)NC3CCCc4ccccc43)cc2)cc1 (centres unmarked) [Entry 4]         < 50 nM
2  O=C(CNC(=O)c1ccc2ncccc2c1)NC1CCCc2ccccc21 (centres unmarked) [Entry 80]  500 to 5000 nM
3  CCc1ccc(-c2ccc(C(=O)N(C)CC(=O)NC3CCCc4ccccc43)cc2)cc1 (centres unmarked) [Entry 66]       > 5000 nM
4  CCCCCCCOc1ccc(C(=O)NCC(=O)NC2CCCc3ccccc32)cc1 (centres unmarked) [Entry 8]    50 to 500 nM
5  COc1ccc(/C=C/C(=O)N[C@@H](COCc2ccccc2)C(=O)NC(c2ccccc2)c2ccccc2)cc1OC [Entry 30]  500 to 5000 nM
6  O=C(COc1ccc(Br)cc1)NCC(=O)NC1CCCc2ccccc21 (centres unmarked) [Entry 3]    50 to 500 nM

Look at this molecule and give its reported IC50. COc1ccc2nc(NC(=O)COC(=O)CC(NC(=O)c3ccccc3)c3ccccc3)sc2c1 (centres unmarked) [Entry 37] < 50 nM

---

Molecular target: KIAA 1361 (baculovirus expressed human KIAA 1361 kinase domain 2-322) (Homo sapiens, UniProt Q7L7X3)
pIC50: −log10 of the molar value.
assay-metric: pIC50

> print(dat)
                                   compound  assay.metric        result
1  CCc1ccc(-c2ccc(C(=O)NCC(=O)N[C@H]3CCCc4ccccc43)cc2)cc1         pIC50        > 7.30
2  CCc1ccc(-c2ccc(C(=O)NCC(=O)NC(C)c3ccccc3)cc2)cc1 (stereo not drawn)         pIC50  5.30 to 6.30

Look at this compound and give its reported pIC50. O=C(COc1ccc(OC(F)(F)F)cc1)NCC(=O)NC1CCCc2ccccc21 (stereo not drawn) 5.30 to 6.30

Look at this compound and give its reported pIC50. O=C(CNC(=O)c1ccc2ncccc2c1)Nc1cccc2c1CCCC2 < 5.30

---

Reported pIC50 is given for each of the following compounds.
Molecular target: JIK (Homo sapiens)
Sequence (Q9H2K8 2-318): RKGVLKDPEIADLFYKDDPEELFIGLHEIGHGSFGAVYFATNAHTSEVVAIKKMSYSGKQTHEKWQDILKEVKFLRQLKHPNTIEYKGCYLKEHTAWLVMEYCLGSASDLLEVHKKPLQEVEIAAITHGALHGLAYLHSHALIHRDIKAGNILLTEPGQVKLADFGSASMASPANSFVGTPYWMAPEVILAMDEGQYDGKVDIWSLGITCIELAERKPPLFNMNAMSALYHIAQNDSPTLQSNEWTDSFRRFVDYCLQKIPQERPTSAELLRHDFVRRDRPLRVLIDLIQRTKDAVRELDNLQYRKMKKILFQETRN
pIC50: −log10 of the molar value.

> print(dat)
                                   compound  assay.metric        result
1  CCCCCOc1ccc(C(=O)NCC(=O)NC2CCCc3ccccc32)cc1 (stereo not drawn)         pIC50        > 7.30
2  O=C(CNC(=O)c1ccc(O)cc1)NC1CCCc2ccccc21 (stereo not drawn)         pIC50  6.30 to 7.30
3  CCc1ccc(-c2ccc(C(=O)NCC(=O)NC(C)c3ccccc3)cc2)cc1 (stereo not drawn)         pIC50  6.30 to 7.30
4  O=C(CNC(=O)C(NC(=O)C(c1ccccc1)C1CCCC1)c1cccnc1)NC1CCCc2ccccc21 (stereo not drawn)         pIC50        < 5.30

Look at this compound and give its reported pIC50. O=C(NC(C(=O)NC1CCCc2ccccc21)c1cccnc1)c1ccc(-n2cncn2)cc1 (stereo not drawn) 6.30 to 7.30

Look at this compound and give its reported pIC50. O=C(CNC(=O)c1ccc(N2CCCCC2)cc1)Nc1cccc2c1CCCC2 < 5.30
